Listed variants paired with reported folding stability dG
B1: 6NMW (parent)
chain: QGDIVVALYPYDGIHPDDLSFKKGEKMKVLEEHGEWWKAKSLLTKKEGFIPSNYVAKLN

variants of: B1; assay: folding stability dG (cDNA display proteolysis); higher = more stable; details: PBS, room temperature
Answer format: numeric, kcal/mol implied, no suffix.

Consider the reported folding stability dG for these variants:
- mutant_name: "G13D"
  folding stability dG [kcal/mol]: 0.145
- mutant_name: "K28W"
  folding stability dG [kcal/mol]: 4.43
- mutant_name: "K57E"
  folding stability dG [kcal/mol]: 2.02

State the recorded folding stability dG for this entry: E32C 4.44
